assay: Plasma PK from oral tick and flea efficacy studies of the C1 racemate; assay type: in vivo, Mongrel dogs; conditions: mongrel, dog, plasma, po, 20 mg/kg, plasma; Mongrel; Flea Efficacy study, oral 20 mg/kg; read-out: NCA AUC0-∞
quantityMeasured: AUC(0-inf) (µg·h/mL)
Numbers only, in µg·h/mL.

Task item: For the compound O=C(CC(F)(F)F)N1CC2(C1)OCc1cc(C3=NSC(c4cc(Cl)c(F)c(Cl)c4)(C(F)(F)F)C3)ccc12 (racemic) [C1 racemate] , give its measured AUC(0-inf) value.
Reply: 525

----------
assay: Dog PK study of C1 (S) enantiomer, single oral dose, plasma and whole blood by chiral LC-MS/MS; type: in vivo, beagle dogs; conditions: dog; plasma; Beagle; oral gavage 10 mg/kg; read-out: NCA AUC0-last
quantityMeasured: AUC(0-t) (µg·h/mL)
Give bare numbers, in µg·h/mL.

Task item: For the molecule O=C(CC(F)(F)F)N1CC2(C1)OCc1cc(C3=NS[C@@](c4cc(Cl)c(F)c(Cl)c4)(C(F)(F)F)C3)ccc12 [C1 (S) enantiomer] , give its measured AUC(0-t) value.
Reply: 191
